Kindly supply the reported log10 of IC50 values for the records listed here.
Tested on: Tγ9δ2 lymphocytes
test_description: Induced cytotoxicity test, Tγ9δ2 lymphocyte clone stimulated by antigen BrHPP
test_parameters: read-out: IC50 concentration leading to the inhibition of 50% of the reference response; lymphocytes stimulated by 80 nM BrHPP; induced cytotoxicity test
Friendly reminder: values = log10 of IC50, unit µM.

Problem: Give measured log10 of IC50 for CC(O)(CI)CCOP(=O)(O)CP(=O)(O)O (stereo not shown) [IH PCP] (Tγ9δ2 lymphocytes).
Solution: 1.18

Problem: Give log10 of IC50; test system Tγ9δ2 lymphocytes; compound CC(O)(CBr)CCOP(=O)(O)CP(=O)(O)O (stereo not shown) [BrH PCP]
Solution: 1.18

Problem: Report its log10 of IC50 with Tγ9δ2 lymphocytes as the test system: CC1(CCOP(=O)(O)C(F)(F)P(=O)(O)O)CO1 (stereo not shown) [Epox PCF2P]
Solution: 2.48

Problem: Report the value of log10 of IC50 obtained on Tγ9δ2 lymphocytes for CC(O)(CBr)CCOP(=O)(O)C(F)(F)P(=O)(O)O (stereo not shown) [BrH PCF2P] .
Solution: 2.18

Problem: Output reported log10 of IC50 of the compound C=C(C)CCOP(=O)(O)C(F)(F)P(=O)(O)O [I PCF2P] on Tγ9δ2 lymphocytes.
Solution: 3.00

Problem: Report the value of log10 of IC50 obtained on Tγ9δ2 lymphocytes for CC(C)(O)CCOP(=O)(O)CP(=O)(O)O [tButOH PCP] .
Solution: 3.00

Problem: State the measured log10 of IC50 (Tγ9δ2 lymphocytes) of CC1(CCOP(=O)(O)CP(=O)(O)O)CO1 (stereo not shown) [Epox PCP]
Solution: 1.48
